Reported IC50 values follow for various compounds
Target: Tubulin beta chain (Bos taurus, UniProt Q6B856)
Sequence (Q6B856 whole entry): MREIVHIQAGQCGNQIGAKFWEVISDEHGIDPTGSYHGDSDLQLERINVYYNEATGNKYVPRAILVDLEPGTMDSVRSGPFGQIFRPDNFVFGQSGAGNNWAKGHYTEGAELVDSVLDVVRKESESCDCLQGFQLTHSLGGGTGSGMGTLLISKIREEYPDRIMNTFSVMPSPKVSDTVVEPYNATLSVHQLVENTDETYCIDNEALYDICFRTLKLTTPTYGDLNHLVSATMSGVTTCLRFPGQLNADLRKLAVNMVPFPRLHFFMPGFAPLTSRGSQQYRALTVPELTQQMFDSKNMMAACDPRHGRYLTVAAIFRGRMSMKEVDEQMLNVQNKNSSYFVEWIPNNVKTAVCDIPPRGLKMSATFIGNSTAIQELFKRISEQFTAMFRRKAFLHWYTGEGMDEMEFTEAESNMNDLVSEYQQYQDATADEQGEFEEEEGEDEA
Assay: Inhibition of tubulin polymerization
experimental_endpoint: IC50 (µM)

- chemical_smiles: "COc1cc2c(ccc1=O)CC[C@@H]1[C@@H]2CC[C@]2(C)[C@@H](O)CC[C@@H]12"
  system_under_test: "Tubulin beta chain (Bos taurus, UniProt Q6B856)"
  uom: "µM"
  quantitative_result: 29.8
- chemical_smiles: "COc1ccc2c(cc1=O)CC[C@@H]1[C@@H]2CC[C@]2(C)[C@@H](O)CC[C@@H]12"
  system_under_test: "Tubulin beta chain (Bos taurus, UniProt Q6B856)"
  uom: "µM"
  quantitative_result: 8.1
- chemical_smiles: "C[C@]12CC[C@@H]3c4cccc(=O)cc4CC[C@H]3[C@@H]1CC[C@@H]2O"
  system_under_test: "Tubulin beta chain (Bos taurus, UniProt Q6B856)"
  uom: "µM"
  quantitative_result: 7.2

---

Target: Tubulin beta chain (Bos taurus, UniProt Q6B856)
Assay: Inhibition of tubulin polymerization
Assay type: functional
Reported IC50 values follow for various compounds
experimental_endpoint: IC50

- chemical_smiles: "C[C@]12CC[C@@H]3c4ccc(=O)c(Cl)cc4CC[C@H]3[C@@H]1CC[C@@H]2O"
  experimental_endpoint: "IC50"
  result: "9.8 µM"
- chemical_smiles: "C[C@]12CC[C@@H]3c4ccc(Br)c(=O)cc4CC[C@H]3[C@@H]1CC[C@@H]2O"
  experimental_endpoint: "IC50"
  result: "2.9 µM"
- chemical_smiles: "C[C@]12CC[C@@H]3c4ccc(=O)ccc4CC[C@H]3[C@@H]1CC[C@@H]2O"
  experimental_endpoint: "IC50"
  result: "4.4 µM"
- chemical_smiles: "C[C@]12CC[C@@H]3c4ccc(Cl)c(=O)cc4CC[C@H]3[C@@H]1CC[C@@H]2O"
  experimental_endpoint: "IC50"
  result: "2.8 µM"

---

Molecular target: Tubulin beta chain (Bos taurus)
Experiment: Inhibition of tubulin polymerization
Reported IC50 values follow for various compounds

- compound: "COc1cc2c(cc1O)CC[C@@H]1[C@@H]2CC[C@]2(C)[C@@H](O)CC[C@@H]12 [2-METHOXYESTRADIOL]"
  IC50 / µM: 14.2
- compound: "COc1ccc2c(cc1=O)[C@H]1CC[C@]3(C)[C@@H](O)CC[C@H]3[C@@H]1CC2"
  IC50 / µM: 27.5
- compound: "C[C@]12CC[C@@H]3c4ccc(=O)c(Br)cc4CC[C@H]3[C@@H]1CC[C@@H]2O"
  IC50 / µM: 11.2
- compound: "CCOc1cc2c(ccc1=O)[C@H]1CC[C@]3(C)[C@@H](O)CC[C@H]3[C@@H]1CC2"
  IC50 / µM: 5.9
- compound: "COc1cc2c(ccc1=O)[C@H]1CC[C@]3(C)[C@@H](O)CC[C@H]3[C@@H]1CC2"
  IC50 / µM: 2.1

---

Target: Tubulin (Bos taurus) (UniProt Q6B856+Q862L2+Q862F3)
Assay: Inhibition of tubulin polymerization by colchicine to that of compound (IC50colchicine/IC50 drug)
Assay type: functional

- chemical_smiles: "C[C@]12CC[C@@H]3c4ccc(=O)ccc4CC[C@H]3[C@@H]1CC[C@@H]2O"
  Activity: 2.5
- chemical_smiles: "C[C@]12CC[C@@H]3c4ccc(=O)c(Cl)cc4CC[C@H]3[C@@H]1CC[C@@H]2O"
  Activity: 1.1
- chemical_smiles: "C[C@]12CC[C@@H]3c4ccc(Cl)c(=O)cc4CC[C@H]3[C@@H]1CC[C@@H]2O"
  Activity: 4
- chemical_smiles: "C[C@]12CC[C@@H]3c4ccc(Br)c(=O)cc4CC[C@H]3[C@@H]1CC[C@@H]2O"
  Activity: 3.9
